- tested on: mushroom tyrosinase (Agaricus bisporus, UniProt C7FF04)
- Sequence (C7FF04 1-392): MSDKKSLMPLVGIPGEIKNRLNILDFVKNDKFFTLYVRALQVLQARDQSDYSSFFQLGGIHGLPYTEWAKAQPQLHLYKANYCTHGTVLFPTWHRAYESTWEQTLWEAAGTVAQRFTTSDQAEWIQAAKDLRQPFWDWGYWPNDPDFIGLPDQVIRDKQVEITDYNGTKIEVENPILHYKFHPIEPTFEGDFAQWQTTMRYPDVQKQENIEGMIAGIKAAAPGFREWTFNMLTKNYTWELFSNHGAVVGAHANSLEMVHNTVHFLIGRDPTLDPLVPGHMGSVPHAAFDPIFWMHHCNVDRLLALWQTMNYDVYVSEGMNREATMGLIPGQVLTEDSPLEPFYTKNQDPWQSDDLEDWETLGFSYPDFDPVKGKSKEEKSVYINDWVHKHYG
- assay method text: Mushroom tyrosinase enzyme inhibition assay (dopachrome absorbance at 475 nm)
- Format: biochemical
- measurement conditions: read-out: Ki
measured quantity: pKi
One number for each entry, as −log10 of the molar value.

- molecule: "Nc1nc2nc[nH]c2c(=S)[nH]1 [Thioguanine, thioguanine]"
  tested on: "mushroom tyrosinase (Agaricus bisporus, UniProt C7FF04)"
  pKi: 4.28
- molecule: "OC[C@H]1O[C@@H](n2cnc3c(S)ncnc32)[C@H](O)[C@@H]1O [Thioinosine, thioinosine]"
  tested on: "mushroom tyrosinase (Agaricus bisporus, UniProt C7FF04)"
  pKi: 5.10

Now look at this one.
For Sc1ncnc2nc[nH]c12 [Mercaptopurine, mercaptopurine] , what is its reported pKi?
4.80
